# system: recombinant wild-type Scn (Homo sapiens, UniProt P80188)
# Sequence (P80188 21-198): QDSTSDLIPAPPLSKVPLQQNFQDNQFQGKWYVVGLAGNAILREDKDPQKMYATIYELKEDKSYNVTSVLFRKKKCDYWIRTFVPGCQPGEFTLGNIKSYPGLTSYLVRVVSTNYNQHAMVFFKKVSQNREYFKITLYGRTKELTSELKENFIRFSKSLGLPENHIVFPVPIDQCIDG
# assay text: Fluorescence Quenching Binding Assay
reported metric: Kd (nM)

1) O=C(NCCCN(CCCCN(CCCNC(=O)c1cccc(O)c1O)C(=O)c1cccc(O)c1O)C(=O)c1cccc(O)c1O)c1cccc(O)c1O [3,4,3-LI(CAM)]: 1.2

Cited source for all entries: patent US12257325B2
